- test protocol: SOD mimetic activity / radical scavenging assay (INT method)
- Format: biochemical
- condition details: INT method; read-out: concentration of 50% inhibition (SOD-IC50), given as range
reported endpoint: IC50

>>> result("NCCSSCCN [cystamine, reference compound]")
"> 1000 µM"
>>> result("COc1cccc(CN=Cc2ccccc2[O][Cu][O]c2ccccc2C=NCc2cccc(OC)c2)c1 [Complex 4b, [Cu (Sal-3-MeOBn)2]]")
"> 1000 µM"

---

- Test system: A549 cells
- test protocol: MTT cytotoxicity assay, A549
- Format: cell-based, human
- condition details: 72 h
reported endpoint: IC50 (µM)

>>> measured_number("N.N.[Cl][Pt][Cl] [cisplatin, reference compound]")
26.2
>>> measured_number("COc1cccc(CN=Cc2ccccc2[O][Cu][O]c2ccccc2C=NCc2cccc(OC)c2)c1 [Complex 4b, [Cu (Sal-3-MeOBn)2]]")
127
>>> measured_number("COc1ccccc1CN=Cc1ccccc1[O-].COc1ccccc1CN=Cc1ccccc1[O-].[Cl-].[Cl-].[Cu+2].[Cu+2] [Complex 4a, [Cu2 (Sal-2-MeOBn)2 Cl2]]")
66.4
>>> measured_number("COc1ccc(CN=Cc2ccccc2[O-])cc1.COc1ccc(CN=Cc2ccccc2[O-])cc1.[Cl-].[Cl-].[Cu+2].[Cu+2] [Complex 4c, [Cu2 (Sal-4-MeOBn)2 Cl2]]")
72
